# assay_overview: osmotic lysis modulators in infected erythrocytes, primary screen, PSAC antagonist project, cell-based, P. falciparum Indochina, OD700, 3 h (AID 1156)
# particulars: higher = more signal, called active from +8 up or from −8 down
The source made the active and inactive calls.
The entries below come with measured z-score values attached.

- molecular_string: "CO[C@H]1COC(=O)[C@@H](OCc2ccccc2)C=C[C@H](C)[C@@H](OC)COC(=O)[C@H](OCc2ccccc2)C=C[C@@H]1C"
  z-score: "-1.35 (inactive)"
- molecular_string: "C[N+](C)(C)CCCCNC(=O)[C@@H]1C[C@@H]2C(=O)N3CCC[C@H]3C(=O)N2[C@@H]1c1cccc(OCCO)c1"
  z-score: "-2.56 (inactive)"
- molecular_string: "CCOC(=O)C[C@H]1[C@H](OC(=O)c2ccccc2-c2ccccc2)[C@@H](NC(=O)C2CCCCC2)c2cc(OCCCO)ccc2N1C(=O)c1ccccc1"
  z-score: "0.217 (inactive)"

Give z-score for the following compound: `Cc1ccc(S(=O)(=O)N[C@H]2COC(=O)CC=C[C@H](C)COC(=O)N[C@@H](C)C(=O)CC=C[C@@H]2C)cc1`
1.1 (inactive)

Give z-score for the following compound: `C=CC[C@@]12N=C(c3ccc(OCCCO)cc3)O[C@@H]1c1ccccc1CN(Cc1ccccc1)C2=O`
3.34 (inactive)

Give z-score for the following compound: `CO[C@]12C=C(Br)[C@@H](C[C@@H]1c1ccccc1)[C@@]1(CO1)C2=O`
0.422 (inactive)

Give z-score for the following compound: `CO[C@H]1COC(=O)[C@@H](C)COC(=O)[C@H](Cc2ccccc2)NC(=O)CC=C[C@H]1C`
-0.116 (inactive)
